tested on: SETVI (Foxtail, Green); test: Preemergence herbicidal evaluation; assay type: in vivo, Setaria viridis; conditions: rate 0.0625 kg/ha; rated 4-5 weeks after treatment; rating scale 0-9
Field: Preemergence herbicidal rating SETVI. Provide a value for each of the compounds that follow.
Give bare numbers.

CCOC(=O)CN1C(=O)C(COC)SC1=Nc1cc(-n2c(=O)cc(C(F)(F)F)n(C)c2=O)c(F)cc1Cl (centres unmarked) [Compound 156]
2.0

Each compound below has a reported value. Please supply its Preemergence herbicidal rating SETVI.
1. Cn1c(C(F)(F)F)cc(=O)n(-c2cc(N=C3SCC(=O)N3Cc3ccccn3)c(Cl)cc2F)c1=O [Compound 131]
2. Cn1c(C(F)(F)F)cc(=O)n(-c2cc(N=C3SCC(=O)N3Cc3ccncc3)c(Cl)cc2F)c1=O [Compound 133]

1. 0.0
2. 0.0

Each compound below has a reported value. Please supply its Preemergence herbicidal rating SETVI.
1. C=C1SC(=Nc2cc(-n3c(=O)cc(C(F)(F)F)n(C)c3=O)c(F)cc2Cl)N(CC(=O)OCC)C1=O [Compound 154]
2. Cn1c(C(F)(F)F)cc(=O)n(-c2cc(N=C3SCC(=O)N3Cc3cc(Cl)cc(Cl)c3)c(Cl)cc2F)c1=O [Compound 150]

[9.0, 0.0]
